Test system: MCF-7 (human breast adenocarcinoma)
Experiment: MTT cytotoxicity assay, MCF-7
Type: cell-based
Conditions: Homo sapiens, MCF7, 72 h, read-out: IC50 ± SD, MCF7
reportedProperty: pIC50
Worth noting: pIC50 values are minus log10 of concentrations stated in mol/L.

Example entries and their recorded answers appear below.
{"compound": "Cc1nc([N+](=O)[O-])c(N2CCN(Cc3cn(Cc4ccc(F)cc4)nn3)CC2)n1Cc1ccccc1 [Compound 9c]", "testedTarget": "MCF-7 (human breast adenocarcinoma)", "measured": 4.62}
{"compound": "Cc1nc([N+](=O)[O-])cn1Cc1ccccc1 [Compound 2, N1-benzyl-2-methyl-4-nitroimidazole]", "testedTarget": "MCF-7 (human breast adenocarcinoma)", "measured": 4.17}
{"compound": "CSc1ccccc1-n1cc(CN2CCN(c3c([N+](=O)[O-])nc(C)n3Cc3ccccc3)CC2)nn1 [Compound 11b]", "testedTarget": "MCF-7 (human breast adenocarcinoma)", "measured": 3.87}
{"compound": "Cc1nc([N+](=O)[O-])c(N2CCN(Cc3cn(Cc4ccccc4[N+](=O)[O-])nn3)CC2)n1Cc1ccccc1 [Compound 9h]", "testedTarget": "MCF-7 (human breast adenocarcinoma)", "measured": 4.32}
{"compound": "COc1ccc(-n2cc(CN3CCN(c4c([N+](=O)[O-])nc(C)n4Cc4ccccc4)CC3)nn2)cc1 [Compound 11f]", "testedTarget": "MCF-7 (human breast adenocarcinoma)", "measured": 3.60}

So for Cc1ccc(Cn2cc(CN3CCN(c4c([N+](=O)[O-])nc(C)n4Cc4ccccc4)CC3)nn2)cc1 [Compound 9k] , the logged pIC50 turned out to be 5.30

Reported pIC50 ( Cc1nc([N+](=O)[O-])c(N2CCN(Cc3cn(Cc4ccccc4)nn3)CC2)n1Cc1ccccc1 [Compound 9a] ) = 4.26

Note to self: pIC50 recorded for Cc1nc([N+](=O)[O-])c(N2CCN(Cc3cn(-c4cccc(Cl)c4)nn3)CC2)n1Cc1ccccc1 [Compound 11n] was 3.81

// field: pIC50; key: Cc1nc([N+](=O)[O-])c(N2CCN(Cc3cn(CC(=O)c4ccccc4)nn3)CC2)n1Cc1ccccc1 [Compound 10a] ; value = 3.95

Short answer for Cc1nc([N+](=O)[O-])c(N2CCN(Cc3cn(-c4ccc5c(c4)OCO5)nn3)CC2)n1Cc1ccccc1 [Compound 11p] : pIC50 was 4.28

The compound listed as Cc1nc([N+](=O)[O-])c(N2CCN(Cc3cn(Cc4ccccc4F)nn3)CC2)n1Cc1ccccc1 [Compound 9j] shows pIC50 equal to 3.82

###

Tested on: MCF-7 (human breast adenocarcinoma)
Assay: MTT cytotoxicity assay, MCF-7
Format: cell-based
Details: Homo sapiens, MCF7, 72 h, read-out: IC50 ± SD, MCF7
# IC50 per record follows
Express your answer in µM, writing the number without its unit.

Solved cases below.
{"compound": "Cc1nc([N+](=O)[O-])c(N2CCN(Cc3cn(-c4ccccc4[N+](=O)[O-])nn3)CC2)n1Cc1ccccc1 [Compound 11i]", "measurementUnits": "µM", "IC50": 185}
{"compound": "Cc1nc([N+](=O)[O-])c(N2CCN(Cc3cn(-c4cccc5ccccc45)nn3)CC2)n1Cc1ccccc1 [Compound 11q]", "measurementUnits": "µM", "IC50": 270}
{"compound": "Cc1ccc(-n2cc(CN3CCN(c4c([N+](=O)[O-])nc(C)n4Cc4ccccc4)CC3)nn2)cc1 [Compound 11e]", "measurementUnits": "µM", "IC50": 219}

IC50 for MCF-7 (human breast adenocarcinoma) with input CCc1ccccc1-n1cc(CN2CCN(c3c([N+](=O)[O-])nc(C)n3Cc3ccccc3)CC2)nn1 [Compound 11h] equals 88

The reported IC50 value, MCF-7 (human breast adenocarcinoma), for Cc1cccc(-n2cc(CN3CCN(c4c([N+](=O)[O-])nc(C)n4Cc4ccccc4)CC3)nn2)c1 reads 161
